B1: Azoarcus group I ribozyme (parent)
chain: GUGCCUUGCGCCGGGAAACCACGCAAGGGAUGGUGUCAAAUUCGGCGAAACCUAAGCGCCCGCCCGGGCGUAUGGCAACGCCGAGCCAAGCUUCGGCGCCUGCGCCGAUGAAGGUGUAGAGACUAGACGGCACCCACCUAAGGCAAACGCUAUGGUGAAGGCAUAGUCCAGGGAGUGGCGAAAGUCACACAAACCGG

# Variants of: B1
# test.description: reverse-splicing fitness (ratio to wild type); higher = more active; in vitro selection; Mg2+ level not given
result.type: reverse-splicing fitness

mutant | result.type | result
C82U A111G A120U A145G C150G C169G U176C | reverse-splicing fitness | 0.00401
C82U A111U A120C A145U C150A C169A U176G | reverse-splicing fitness | 0.00478
C82U A111C A120G A145U C150A U176A | reverse-splicing fitness | 0.0119
A111U A145U C150G C169G | reverse-splicing fitness | 0.011
C82U A111C A120C A145C U176C | reverse-splicing fitness | 0.0155
C82G A111C A145U C150U U176A | reverse-splicing fitness | 0.0841
A111C A145U C150U C169U U176C | reverse-splicing fitness | 0.0241
C82G A111U A120C A145G C150G C169U | reverse-splicing fitness | 0.0106
C82U A120C C150G C169G U176G | reverse-splicing fitness | 0.00432
C82G A111C C150A C169G U176G | reverse-splicing fitness | 0.00931
C82U A120C C150G C169G | reverse-splicing fitness | 0.00683
C82G A111C A120G A145C C150A C169U U176C | reverse-splicing fitness | 0.00999
C82G A111U A145G C150U | reverse-splicing fitness | 0.298
A111C A120U C150A C169A U176G | reverse-splicing fitness | 0.00239
C82A A120U A145C C169A U176C | reverse-splicing fitness | 0.0019
C82A A111C A120U A145G C150A C169A U176G | reverse-splicing fitness | 0.00349
C82U A120C A145C C150U | reverse-splicing fitness | 0.0393
A111G C150A C169U U176G | reverse-splicing fitness | 0.00628
C82U A111C A145U C150G C169G U176G | reverse-splicing fitness | 0.00703
C82G A111G | reverse-splicing fitness | 0.411
C82G A111C A120C A145C C169G U176A | reverse-splicing fitness | 0.0259
C82G A111C A120G A145U C150G U176C | reverse-splicing fitness | 0.015
C82A A111G A120G A145U C150G C169U U176G | reverse-splicing fitness | 0.00483
C82A A111G A120U A145C C150A C169U U176A | reverse-splicing fitness | 0.00351
C82U A111U A120C A145G C150G C169U U176C | reverse-splicing fitness | 0.0128
A111G A120C A145U C169A | reverse-splicing fitness | 0.0133
C82G A111U A145U C150G U176C | reverse-splicing fitness | 0.0254
C82G A111U A145G C150U C169G U176G | reverse-splicing fitness | 0.0058
C82G A120U C169U U176A | reverse-splicing fitness | 0.00406
C82U A111U A120G A145G C150G C169U U176G | reverse-splicing fitness | 0.00647
A111G A120C A145C C150A C169U | reverse-splicing fitness | 0.0193
A120C A145U C169U U176G | reverse-splicing fitness | 0.0184
C82U A111G A120U A145U C169G | reverse-splicing fitness | 0.00313
A111U A120G A145U C150U C169U U176G | reverse-splicing fitness | 0.0055
C82A A111C U176C | reverse-splicing fitness | 0.102
C82A A145U C169G | reverse-splicing fitness | 0.00976
C82G A111G C169A U176G | reverse-splicing fitness | 0.00537
A120C C150G C169A U176C | reverse-splicing fitness | 0.00991
C82U A120G A145C C150G C169A U176G | reverse-splicing fitness | 0.00406
C82U A111G A120U A145C C150U C169U | reverse-splicing fitness | 0.00249
C82U A111U A145U C150G | reverse-splicing fitness | 0.028
A111U A120C A145G C150U C169G U176G | reverse-splicing fitness | 0.00528
C82G A111C A145U C169A U176A | reverse-splicing fitness | 0.0149
A145C C150A C169G U176G | reverse-splicing fitness | 0.00531
C82U A111U A145G C150G C169U U176G | reverse-splicing fitness | 0.00654
A111C A120C A145U C169G U176C | reverse-splicing fitness | 0.0123
C82U A111C A120G C169A | reverse-splicing fitness | 0.00844
C82G A120U A145G C150U C169U U176A | reverse-splicing fitness | 0.00444
C82U A111C A120C A145U C169A U176G | reverse-splicing fitness | 0.00532
C82A A111C A120G C150A C169G U176C | reverse-splicing fitness | 0.0234
C82A A111G A120U A145U C150G | reverse-splicing fitness | 0.00746
C82A A120G A145G C150G C169G U176C | reverse-splicing fitness | 0.0124
C82U A111U A145U C150G C169G U176A | reverse-splicing fitness | 0.00698
C82U A111G A120U A145C C150U U176A | reverse-splicing fitness | 0.00377
C82U C150A C169U U176G | reverse-splicing fitness | 0.0058
C82A A120C A145U C150U C169A U176A | reverse-splicing fitness | 0.0178
C82A A120G A145G C150A C169G | reverse-splicing fitness | 0.0104
C82U A111G A145U C169A U176A | reverse-splicing fitness | 0.00885
A111C A120G A145U C150G C169G U176G | reverse-splicing fitness | 0.00412
A111G C150A U176A | reverse-splicing fitness | 0.275
C82G A111C A120U A145G U176A | reverse-splicing fitness | 0.0112
C82G A120U A145C C150A U176C | reverse-splicing fitness | 0.00532
A111U A120C C150G C169G U176A | reverse-splicing fitness | 0.00683
A111U A120G A145C C150U C169A U176C | reverse-splicing fitness | 0.00998
A111U A120C C150A C169U | reverse-splicing fitness | 0.0239
A120U A145G C169G U176C | reverse-splicing fitness | 0.0902
A111U A120U A145G C150U C169A U176C | reverse-splicing fitness | 0.00389
A120C C169A U176A | reverse-splicing fitness | 0.0173
C82G A111C A120U A145C C150A C169U | reverse-splicing fitness | 0.00329
C82A A120C A145G | reverse-splicing fitness | 0.136
A111U A120C A145G C150G C169A | reverse-splicing fitness | 0.0087
C82U A111C A120U A145U C150U U176C | reverse-splicing fitness | 0.0089
A111C A120U A145G C150G C169G U176G | reverse-splicing fitness | 0.00386
C82G A111G A120G A145G C150G | reverse-splicing fitness | 0.00815
C82U A111C A120U A145U C150A C169A U176C | reverse-splicing fitness | 0.00253
C82A A111G A120U A145G U176C | reverse-splicing fitness | 0.0165
C82A A111U A145U C150G C169A U176G | reverse-splicing fitness | 0.00651
C82G A111G A120G A145G C150A U176G | reverse-splicing fitness | 0.0096
C82G A111U A120U U176C | reverse-splicing fitness | 0.0167
A111C A145U C150U | reverse-splicing fitness | 0.731
A111G A120U A145G C169G U176A | reverse-splicing fitness | 0.00934
A111G A120U A145C C150U C169U | reverse-splicing fitness | 0.0277
A111C A120C A145U C150G C169A U176A | reverse-splicing fitness | 0.0107
A111G A145U C150G C169A U176G | reverse-splicing fitness | 0.00461
C82G A111U A120U A145C C150U C169G U176G | reverse-splicing fitness | 0.0021
